Target: T1, Clostridium difficile toxin A (TcdA) (Clostridium difficile, UniProt P16154 1-2710)
T1 construct: mature; also called full-length TcdA
T1 sequence (P16154 whole entry): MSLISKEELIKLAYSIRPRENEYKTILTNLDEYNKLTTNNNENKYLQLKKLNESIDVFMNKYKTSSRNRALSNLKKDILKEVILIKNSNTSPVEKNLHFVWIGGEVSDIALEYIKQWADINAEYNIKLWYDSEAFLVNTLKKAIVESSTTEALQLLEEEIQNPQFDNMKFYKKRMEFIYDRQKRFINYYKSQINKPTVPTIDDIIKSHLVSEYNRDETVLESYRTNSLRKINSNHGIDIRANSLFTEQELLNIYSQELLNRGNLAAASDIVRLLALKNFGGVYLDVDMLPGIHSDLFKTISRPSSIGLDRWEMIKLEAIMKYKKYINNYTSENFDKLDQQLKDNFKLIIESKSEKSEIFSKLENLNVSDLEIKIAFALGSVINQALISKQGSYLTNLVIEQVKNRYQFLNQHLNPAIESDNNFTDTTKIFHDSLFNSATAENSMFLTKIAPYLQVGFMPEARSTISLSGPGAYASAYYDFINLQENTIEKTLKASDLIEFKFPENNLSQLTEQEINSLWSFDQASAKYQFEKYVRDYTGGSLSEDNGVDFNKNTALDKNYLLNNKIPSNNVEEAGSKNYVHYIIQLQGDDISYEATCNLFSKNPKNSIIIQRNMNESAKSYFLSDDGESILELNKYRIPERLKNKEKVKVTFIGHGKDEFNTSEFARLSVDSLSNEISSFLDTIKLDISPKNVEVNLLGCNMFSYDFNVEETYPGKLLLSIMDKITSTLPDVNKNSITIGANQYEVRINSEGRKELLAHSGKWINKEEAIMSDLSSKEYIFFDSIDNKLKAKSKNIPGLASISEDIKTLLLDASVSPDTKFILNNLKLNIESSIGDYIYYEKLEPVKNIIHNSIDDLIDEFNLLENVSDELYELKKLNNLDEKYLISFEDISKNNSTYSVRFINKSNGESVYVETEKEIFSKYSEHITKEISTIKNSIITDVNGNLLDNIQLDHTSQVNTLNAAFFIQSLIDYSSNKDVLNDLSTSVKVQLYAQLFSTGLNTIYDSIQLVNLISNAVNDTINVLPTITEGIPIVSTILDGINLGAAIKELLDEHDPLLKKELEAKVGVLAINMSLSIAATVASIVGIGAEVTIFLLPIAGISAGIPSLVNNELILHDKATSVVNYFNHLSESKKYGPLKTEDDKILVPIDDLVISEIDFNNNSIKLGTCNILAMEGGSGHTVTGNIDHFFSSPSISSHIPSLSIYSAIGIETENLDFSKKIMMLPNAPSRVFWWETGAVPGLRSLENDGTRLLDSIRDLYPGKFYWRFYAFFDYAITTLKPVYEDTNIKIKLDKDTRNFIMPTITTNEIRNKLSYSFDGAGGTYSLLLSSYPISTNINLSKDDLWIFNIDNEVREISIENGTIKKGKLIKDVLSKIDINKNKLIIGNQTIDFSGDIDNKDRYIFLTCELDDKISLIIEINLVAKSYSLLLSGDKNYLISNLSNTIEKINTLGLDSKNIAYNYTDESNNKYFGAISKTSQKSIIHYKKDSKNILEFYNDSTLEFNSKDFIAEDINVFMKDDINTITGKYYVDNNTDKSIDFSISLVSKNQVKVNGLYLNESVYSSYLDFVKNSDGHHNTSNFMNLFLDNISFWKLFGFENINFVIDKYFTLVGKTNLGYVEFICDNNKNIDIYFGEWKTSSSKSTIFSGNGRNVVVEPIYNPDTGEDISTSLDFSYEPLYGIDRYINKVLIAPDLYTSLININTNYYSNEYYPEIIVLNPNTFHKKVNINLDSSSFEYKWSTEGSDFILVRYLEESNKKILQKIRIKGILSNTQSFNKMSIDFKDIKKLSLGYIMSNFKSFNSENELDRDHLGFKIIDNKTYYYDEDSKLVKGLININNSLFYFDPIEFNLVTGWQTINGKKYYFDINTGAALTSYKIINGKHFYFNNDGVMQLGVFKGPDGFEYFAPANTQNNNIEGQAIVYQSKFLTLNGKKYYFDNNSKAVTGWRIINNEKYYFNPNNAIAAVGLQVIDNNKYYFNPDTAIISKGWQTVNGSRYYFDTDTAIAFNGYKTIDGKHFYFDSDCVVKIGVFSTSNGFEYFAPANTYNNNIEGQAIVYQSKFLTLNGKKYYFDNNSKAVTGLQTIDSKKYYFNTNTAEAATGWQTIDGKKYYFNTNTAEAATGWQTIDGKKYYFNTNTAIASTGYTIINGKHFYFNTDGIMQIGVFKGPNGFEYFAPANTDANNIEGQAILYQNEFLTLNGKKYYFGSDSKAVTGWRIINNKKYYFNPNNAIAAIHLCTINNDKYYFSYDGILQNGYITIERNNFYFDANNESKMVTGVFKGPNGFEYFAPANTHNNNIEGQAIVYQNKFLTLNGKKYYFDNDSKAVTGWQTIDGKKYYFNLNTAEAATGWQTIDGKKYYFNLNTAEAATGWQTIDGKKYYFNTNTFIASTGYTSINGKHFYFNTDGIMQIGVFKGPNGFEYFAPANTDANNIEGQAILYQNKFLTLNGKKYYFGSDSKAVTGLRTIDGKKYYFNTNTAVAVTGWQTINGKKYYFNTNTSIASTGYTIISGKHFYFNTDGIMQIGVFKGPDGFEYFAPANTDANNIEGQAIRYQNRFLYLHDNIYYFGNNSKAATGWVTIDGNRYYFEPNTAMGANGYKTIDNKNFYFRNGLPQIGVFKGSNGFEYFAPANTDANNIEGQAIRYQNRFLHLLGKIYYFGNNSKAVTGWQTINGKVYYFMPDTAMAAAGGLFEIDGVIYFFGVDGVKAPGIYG
Experiment: SPR (Biacore 3000), VHH over immobilized TcdA, 1:1 fit
observed_property: kon (M⁻¹ s⁻¹)
Numbers only, in M⁻¹ s⁻¹.

binder	kon (M⁻¹ s⁻¹)
A26.8 VHH mutant D107R (VHH, not shown: small tags and cut ends) VHH: QVKLEESGGGLVQAGGSLRLSCAASERTFSRYPVAWFRQAPGAEREFVAVISSTGTSTYYADSVKGRFTISRDNAKVTVYLQMNNLKREDTAVYFCAVNSQRTRLQRPNEYDYWGQGTQVTVSS	1.39e+06

Would you kindly look at the next entry?
Input line: Record request: kon value, item A26.8 VHH mutant T54Y (VHH, not shown: small tags and cut ends) VHH: QVKLEESGGGLVQAGGSLRLSCAASERTFSRYPVAWFRQAPGAEREFVAVISSYGTSTYYADSVKGRFTISRDNAKVTVYLQMNNLKREDTAVYFCAVNSQRTRLQDPNEYDYWGQGTQVTVSS
Output line: 1.81e+06
